Values compiled from patent US3974140A.

tested on: Psdm. aerug. Bonn; assay: MIC, liquid medium test tube series dilution test; format: cell-based, Pseudomonas aerug.; conditions: 24 hours, 37°C
Kindly supply the reported MIC values for the records listed here.

Q. Name the recorded MIC of the item CN(C(=O)NC(C(=O)N[C@@H]1C(=O)N2[C@@H]1SC(C)(C)[C@@H]2C(=O)O)c1c(Cl)cccc1Cl)C(=O)c1ccccc1 (stereo partly shown) [Example 32] in your answer.
A. 100-500 units/ml

Q. Name the recorded MIC of the item C=CCN(C(C)=O)C(=O)NC(C(=O)N[C@@H]1C(=O)N2[C@@H]1SC(C)(C)[C@@H]2C(=O)O)c1cccs1 (stereo partly shown) in your answer.
A. 100-500 units/ml

Q. Name the recorded MIC of the item Cc1ccc(C(NC(=O)N(C)C(=O)c2ccccc2)C(=O)N[C@@H]2C(=O)N3[C@@H]2SC(C)(C)[C@@H]3C(=O)O)cc1 (stereo partly shown) in your answer.
A. 20-100 units/ml

Q. Name the recorded MIC of the item C=CCN(C(=O)NC(C(=O)N[C@@H]1C(=O)N2[C@@H]1SC(C)(C)[C@@H]2C(=O)O)c1ccc(OC)cc1)C(=O)c1ccccc1 (stereo partly shown) in your answer.
A. 100-500 units/ml

Q. Name the recorded MIC of the item CSc1ccc(C(NC(=O)N2CCNC2=O)C(=O)N[C@@H]2C(=O)N3[C@@H]2SC(C)(C)[C@@H]3C(=O)O)cc1 (stereo partly shown) [Example 55] in your answer.
A. 12,5 units/ml

Q. Name the recorded MIC of the item `CN(C(=O)C=Cc1cccc([N+](=O)[O-])c1)C(=O)N[C@@H](C(=O)N[C@@H]1C(=O)N2[C@@H]1SC(C)(C)[C@@H]2C(=O)O)c1ccccc1` in your answer.
A. 0.8-4 units/ml

Q. Name the recorded MIC of the item `COC(=O)N(C)C(=O)N[C@@H](C(=O)N[C@@H]1C(=O)N2[C@@H]1SC(C)(C)[C@@H]2C(=O)O)c1c(Cl)cccc1Cl` in your answer.
A. 100-500 units/ml

###

tested on: Psdm. aerug. Walter; assay: MIC, liquid medium test tube series dilution test; assay type: cell-based, Pseudomonas aerug.; settings: 24 hours, 37°C
Kindly supply the reported MIC values for the records listed here.

Q. Name the recorded MIC of the item CC1(C)S[C@@H]2[C@H](NC(=O)[C@H](NC(=O)N3CCNC3=O)c3ccccc3)C(=O)N2[C@H]1C(=O)O [Example 52] in your answer.
A. 12,5 units/ml

Q. Name the recorded MIC of the item CN(C(=O)NC(C(=O)N[C@@H]1C(=O)N2[C@@H]1SC(C)(C)[C@@H]2C(=O)O)c1c(Cl)cccc1Cl)C(=O)c1ccccc1 (stereo partly shown) [Example 31] in your answer.
A. 100-500 units/ml

Q. Name the recorded MIC of the item `CCCN(C(=O)N[C@@H](C(=O)N[C@@H]1C(=O)N2[C@@H]1SC(C)(C)[C@@H]2C(=O)O)c1ccccc1)C(=O)c1ccc(OC)c([N+](=O)[O-])c1` in your answer.
A. 50-100 units/ml

Q. Name the recorded MIC of the item CN(C(=O)NC(C(=O)N[C@@H]1C(=O)N2[C@@H]1SC(C)(C)[C@@H]2C(=O)O)c1cccs1)C(=O)c1ccco1 (stereo partly shown) in your answer.
A. 20-100 units/ml
